Source of measurements: patent US8859608B2

Target: human OX1 receptor (Homo sapiens, UniProt O43613)
Sequence (O43613 1-425): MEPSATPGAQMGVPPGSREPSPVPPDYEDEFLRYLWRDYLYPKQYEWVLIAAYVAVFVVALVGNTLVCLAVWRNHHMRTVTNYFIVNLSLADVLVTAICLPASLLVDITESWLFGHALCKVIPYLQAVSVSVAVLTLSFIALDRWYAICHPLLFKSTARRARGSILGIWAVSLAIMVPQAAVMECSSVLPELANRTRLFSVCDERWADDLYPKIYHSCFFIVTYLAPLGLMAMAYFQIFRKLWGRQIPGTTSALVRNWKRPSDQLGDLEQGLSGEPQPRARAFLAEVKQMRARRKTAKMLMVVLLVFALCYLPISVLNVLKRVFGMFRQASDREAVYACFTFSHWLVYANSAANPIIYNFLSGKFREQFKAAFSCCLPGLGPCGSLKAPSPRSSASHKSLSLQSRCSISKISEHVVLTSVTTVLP
Test: FLIPR measurement of intracellular calcium, antagonistic activity at OX1
Conditions: pKb OX1, CHO cells with human recombinant OX1, activated with orexin-A 3 nM; 1 nM-1 μM range; modified Cheng Prusoff
Metric Name: Kb (nM)

>>> measured_result("Cc1ccc(-c2ncccn2)c(C(=O)N2CCC3(CC3)CC2CNc2ccc(Cl)cn2)c1 (racemic)")
50.1

[1] O=C(c1c(F)cccc1-c1ccccn1)N1CCC2(CC2)C[C@H]1CNc1ccc(Cl)cn1
[2] O=C(c1ccccc1-c1ncccn1)N1CCC2(CC2)C[C@H]1CNc1ccc(Cl)cn1
[3] Cc1nc(C(=O)N2CCC3(CC3)C[C@H]2CNc2ccc(F)cn2)c(-c2ccccc2)s1
Please list the entries, largest Kb first. Answer by writing out the labels in the requested order.
3, 2, 1
(3: 63.1 nM, 2: 31.6 nM, 1: 20 nM)

###

Biological target: UniProt O43613
Experiment: FLIPR measurement of intracellular calcium, antagonistic activity at OX1
Settings: pKb OX1, CHO cells with human recombinant OX1, activated with orexin-A 3 nM; 1 nM-1 μM range; modified Cheng Prusoff
Metric Name: Kb (µM)

Example entries begin here.
>>> measured_result("Cc1ccc(-n2nccn2)c(C(=O)N2CCC3(CC3)CC2CNc2ccc(Cl)cn2)c1 (racemic)")
0.0316
>>> measured_result("Cc1nc(C(=O)N2CCC3(CC3)C[C@H]2CNc2nc(F)cc(F)n2)c(-c2ccccc2)s1")
0.1
>>> measured_result("Cc1ccc(-c2ncccn2)c(C(=O)N2CCC3(CC3)C[C@H]2CNc2ccc(C(F)(F)F)cn2)c1")
0.0126

[1] Cc1nc(C(=O)N2CCC3(CC3)CC2CNc2ccc(Cl)cn2)c(-c2ccccc2)s1 (single isomer, unassigned) [Compound 5]
[2] Cc1ccc(-c2ncccn2)c(C(=O)N2CCC3(CC3)C[C@H]2CNc2cccc(Cl)n2)c1
Which shows the larger Kb value: 1 or 2 ? Label of pick, please.
2
(2: 0.0631 µM, 1: 0.0126 µM)

###

Target: human OX1 receptor (Homo sapiens, UniProt O43613)
Experiment: FLIPR measurement of intracellular calcium, antagonistic activity at OX1
Details: pKb OX1, CHO cells with human recombinant OX1, activated with orexin-A 3 nM; 1 nM-1 μM range; modified Cheng Prusoff
Metric Name: Kb (nM)

Example entries begin here.
>>> measured_result("Cc1nc(C(=O)N2CCCCC2CNc2ccc(Cl)cn2)c(-c2ccccc2)s1 (centres unmarked) [comparison 2, reference compound]")
10
>>> measured_result("Cc1cc(C)nc(NC[C@@H]2CC3(CCN2C(=O)c2nc(C)sc2-c2ccccc2)CC3)n1")
20
>>> measured_result("Cc1cccc(NCC2CC3(CCCC3)CCN2C(=O)c2nc(C)sc2-c2ccccc2)n1 (racemic)")
63.1
>>> measured_result("O=C(c1c(F)cccc1-c1ncccn1)N1CCC2(CC2)C[C@H]1CNc1ccc(Cl)cn1")
10
>>> measured_result("Cc1nc(C(=O)N2CCC3(CC3)CC2CNc2ccc(Cl)cn2)c(-c2ccc(F)cc2)s1 (racemic)")
39.8
>>> measured_result("Cc1nc(C(=O)N2CCC3(CC3)C[C@H]2CNc2cccc(C(F)(F)F)n2)c(-c2ccccc2)s1")
50.1

[a] Cc1ccc(-c2ncccn2)c(C(=O)N2CC3(CC3)C[C@H]2CNc2ccc(Cl)cn2)c1
[b] O=C(c1ccccc1OCC1CC1)N1CCCCC1CNc1ccc(Cl)cn1 (centres unmarked) [comparison 4, reference compound]
Lowest Kb? choose a or b Label of pick, please.
b

###

Molecular target: UniProt:O43614
Sequence (O43614 1-444): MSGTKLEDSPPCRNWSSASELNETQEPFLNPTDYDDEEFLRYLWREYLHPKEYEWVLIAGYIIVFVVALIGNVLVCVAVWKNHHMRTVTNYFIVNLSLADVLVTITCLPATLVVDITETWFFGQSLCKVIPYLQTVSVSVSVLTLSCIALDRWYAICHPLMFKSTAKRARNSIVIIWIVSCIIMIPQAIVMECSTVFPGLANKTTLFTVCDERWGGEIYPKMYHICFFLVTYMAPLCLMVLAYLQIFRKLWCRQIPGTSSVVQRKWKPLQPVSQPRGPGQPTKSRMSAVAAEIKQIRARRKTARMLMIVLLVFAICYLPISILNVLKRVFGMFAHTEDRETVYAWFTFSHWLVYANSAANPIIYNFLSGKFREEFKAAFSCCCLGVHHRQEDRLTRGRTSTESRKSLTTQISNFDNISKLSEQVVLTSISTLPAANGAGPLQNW
Test: FLIPR measurement of intracellular calcium, antagonistic activity at OX2
Metric Name: Kb

>>> measured_result("COC(=O)c1cc(Cl)ccc1NCC1CC2(CCN1C(=O)c1nc(C)sc1-c1ccc(F)cc1)CC2 (racemic)")
"> 10 µM"
>>> measured_result("Cc1cc(C)nc(NC[C@@H]2CC3(CCN2C(=O)c2cc(Cl)ccc2Cl)CC3)n1")
"> 10 µM"
>>> measured_result("O=C(c1ccccc1OCC1CC1)N1CCC2(CC2)CC1CNc1ccc(Cl)cn1 (racemic)")
"> 10 µM"

Given the compound Cc1nc(C(=O)N2CCC3(CC3)C[C@H]2CNc2cccc(C(F)(F)F)n2)c(-c2ccccc2)s1 , what is its reported Kb?
> 10 µM

Would you kindly repeat that for Cc1cccc(NCC2CCCCN2C(=O)c2nc(C)sc2-c2ccccc2)n1 (centres unmarked) [comparison 3, reference compound] ?
0.00316 µM

###

Biological target: human OX1 receptor (Homo sapiens, UniProt O43613)
Sequence (O43613 1-425): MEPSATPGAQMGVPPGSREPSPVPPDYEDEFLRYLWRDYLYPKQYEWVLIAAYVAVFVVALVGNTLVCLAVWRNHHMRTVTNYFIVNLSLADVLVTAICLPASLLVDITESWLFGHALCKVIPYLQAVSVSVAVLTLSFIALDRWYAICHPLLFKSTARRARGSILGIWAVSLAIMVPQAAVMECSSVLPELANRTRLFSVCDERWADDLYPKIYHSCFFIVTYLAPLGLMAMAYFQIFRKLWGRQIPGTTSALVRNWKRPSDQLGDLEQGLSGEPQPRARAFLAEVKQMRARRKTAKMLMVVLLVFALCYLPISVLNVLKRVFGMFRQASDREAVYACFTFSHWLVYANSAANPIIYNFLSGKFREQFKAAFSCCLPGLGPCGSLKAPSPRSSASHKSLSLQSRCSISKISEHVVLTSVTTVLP
Assay: FLIPR measurement of intracellular calcium, antagonistic activity at OX1
Settings: pKb OX1, CHO cells with human recombinant OX1, activated with orexin-A 3 nM; 1 nM-1 μM range; modified Cheng Prusoff
Metric Name: Kb (nM)

Example entries begin here.
>>> measured_result("Cc1nc(C(=O)N2CCC3(CC3)CC2CNc2ccc(Cl)cn2)c(-c2ccccc2)s1 (racemic) [Compound 4]")
25.1
>>> measured_result("O=C(c1ccccc1-c1cnccn1)N1CCC2(CC2)C[C@H]1CNc1ccc(Cl)cn1 [Compound 30]")
63.1
>>> measured_result("O=C(c1ccccc1-c1ccccc1)N1CCC2(CC2)C[C@H]1CNc1ccc(Cl)cn1 [Compound 38]")
20

[A] Cc1nc(C(=O)N2CCC3(CC3)C[C@H]2CNc2cccc(F)n2)c(-c2ccccc2)s1 [Compound 25]
[B] Cc1ccc(-c2ccccn2)c(C(=O)N2CCC3(CC3)C[C@H]2CNc2ccc(Cl)cn2)c1 [Compound 33]
Lowest Kb? choose A or B Label of pick, please.
B
